Test system: COLO 205 colon
Measurement Protocol: NCI tumour cell line growth inhibition, 48 h; in the data active = GI50 below about 0.43 µM; inactive = the rest
The reply should name one outcome from 1 (active), -1 (inactive)

Here are 6 molecules together with their reported answers.
CC(C)(O)/C=C/C(=O)[C@](C)(O)[C@H]1[C@H](O)C[C@@]2(C)[C@@H]3CC=C4[C@@H](C=C(O)C(=O)C4(C)C)[C@]3(C)C(=O)C[C@]12C : 1
COc1cc(C)cc2c1[nH]c1ccccc12 : -1
Cn1cc(C2=C(Oc3ccccc3)C(=O)NC2=O)c2ccccc21 : -1
O=C(/C=C/c1cccs1)c1ccc(Cl)cc1Cl : -1
Cc1ncc(C(=O)Nc2ccc(CN3CCN(C)CC3)c(C(F)(F)F)c2)cc1C#Cc1c(N)ncc2ccc(F)cc12 : 1
Oc1c(I)cc(I)cc1CNCCN(Cc1ccccn1)Cc1ccccn1 : -1

Enquiry: Query: recorded result category for COc1cccc(/C(COc2ccc3c(c2)oc(=O)c2ccccc23)=N\O)c1 in this test
Return: -1

Enquiry: # iterate: CCC(=O)c1c(C(F)(F)F)n([O-])c2cc(N3CCNCC3)c(F)cc2[n+]1=O
Return: -1

====

System: OVCAR-5 ovarian
Measurement Protocol: NCI tumour cell line growth inhibition, 48 h
# Lookup of reported TGI keyed by entry

These solved cases illustrate the format of a correct answer.
CC(C)c1cc2c(c(O)c1O)[C@@]1(C)CCCC(C)(C)C1=C(O)C2 : 9.03 µM
COc1cc(C2CC(c3cccc(Nc4ccnc5cc(Cl)ccc45)c3)=NN2C=O)cc(OC)c1OC (configuration not stated) : 20.3 µM
CCCc1cn2c(/C=N/N=C(N)N)c(-c3c(OC)ccc(OC)c3[N+](=O)[O-])nc2s1 : 34.5 µM
Cc1cc2c(c3c1c1ccccc1n3C)C(=O)c1ccccc1C2=O : > 100 µM
N#Cc1c(-c2ccc(Cl)cc2)cc(-c2ccc(Nc3ccnc4cc(Cl)ccc34)cc2)nc1N : > 100 µM
O=c1oc2ccc(Br)cc2c(=O)n1-c1ccc(Br)cc1F : 48.1 µM
C=CCN1CN(C2CCCCC2)CSC1=S : 27.6 µM
COc1cccc2c(=O)c3c(n(C)c12)OC(C(C)C)C3 (configuration not stated) : > 100 µM
CC(=O)c1c2c(cc3c1CC1(Cc4cc5c(cc4C1)CCCC5)C3)CCCC2 : > 100 µM
CCN(CC)c1ccc(/C=N/NC(=O)c2ccc(S(C)(=O)=O)cc2)c(O)c1 : > 100 µM

Please look at the following compound next.
Enquiry: Tell me the measured TGI of CC(C)NC(=O)OCc1c(COC(=O)NC(C)C)c(-c2ccc[n+](COC(=O)C(C)C)c2)n2c1CCC2 , please.
Return: > 100 µM

====

System: OVCAR-3 ovarian
Measurement Protocol: NCI tumour cell line growth inhibition, 48 h
Property: TGI

CC1CC(NN)=Nc2ccccc2N1 (stereo not given) : > 100 µM
O=C1Nc2ccccc2C12CCCC2 : > 100 µM
CC(C)NC(=O)OCc1c(COC(=O)NC(C)C)c(-c2ccc[n+](COC(=O)C(C)C)c2)n2c1CCC2 : > 100 µM
CN(C)c1nc(N)nc(CCl)n1 : 49 µM
CC(=O)OCC1OC(n2c3c(cc(C#N)c2=O)CCCCCC3)C(OC(C)=O)C(OC(C)=O)C1OC(C)=O (stereo not given) : > 100 µM
CSc1nc(N)cc(Oc2ccc(-c3nc(Nc4cccc(C(F)(F)F)c4)n[nH]3)cc2)n1 : 1.22 µM

Enquiry: Recorded TGI for COC(=O)c1cc(C)n(CN(Cn2nc(C(=O)OC)cc2C)c2ccccc2)n1 , please?
Return: > 100 µM

Enquiry: What do you have for COc1ccc(-c2c(C#N)c(=O)nc(SC)n2C2OCC(OC(C)=O)C(OC(C)=O)C2OC(C)=O)cc1 (stereo not given) ?
Return: > 100 µM

Enquiry: What do you get for COc1cc(-c2cc(/C=C3\C(=O)Nc4cc(Cl)ccc43)[nH]n2)cc(OC)c1OC ?
Return: 15.1 µM

Enquiry: Same read-out for CC(C)(C)OC(=O)NC(Cc1ccc(OCc2ccccc2)cn1)C(=O)N1CCCC1 (stereo not given) ?
Return: > 100 µM
